// values below are reported EC50
- EXPERIMENTAL SYSTEM: T1, human CLDN9 (UniProt O95484 1-217)
- T1 chain: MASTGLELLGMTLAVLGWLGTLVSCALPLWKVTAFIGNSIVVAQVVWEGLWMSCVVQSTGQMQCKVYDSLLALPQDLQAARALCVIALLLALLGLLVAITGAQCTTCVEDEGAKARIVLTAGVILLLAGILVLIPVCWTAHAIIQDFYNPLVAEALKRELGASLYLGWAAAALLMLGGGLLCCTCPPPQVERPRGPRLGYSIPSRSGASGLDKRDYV
- ASSAY OVERVIEW: HEK293E cell binding; avid
Give the value in µg/mL but do not write µg/mL after it.

Completed entries (count: 2):
{"BINDER": "XENP35100 H2.7_L1 (antibody, V domains shown) VH: EVQLVQSGAEVKKPGESLRISCKTSGYTFTEYTMHWVRQMPGKSLEWMGGIDPNQGNTHYNQKFQGHVTISVDKSISTAYLQWSSLKASDTAMYYCARIYYFGRLYFDFWGAGTLVTVSS VL: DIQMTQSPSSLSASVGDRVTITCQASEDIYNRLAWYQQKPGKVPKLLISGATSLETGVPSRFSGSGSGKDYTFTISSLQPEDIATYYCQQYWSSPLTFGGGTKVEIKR", "RECORDED RESULT": 63.5}
{"BINDER": "XENP35061 H2_L1.18 (antibody, V domains shown) VH: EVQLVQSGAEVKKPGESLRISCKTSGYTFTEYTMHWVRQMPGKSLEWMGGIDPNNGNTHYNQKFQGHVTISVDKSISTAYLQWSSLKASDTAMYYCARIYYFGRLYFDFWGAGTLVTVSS VL: DIQMTQSPSSLSASVGDRVTITCQASEDIYNRLAWYQQKPGKVPKLLISGTTSLETGVPSRFSGSGSGKDYTFTISSLQPEDIATYYCQQYWSSPLTFGGGTKVEIKR", "RECORDED RESULT": 56.3}

Returns the measured EC50 for the input binder. Input: XENP34220, humanized C6-30 H2L1 bivalent mAb (antibody, V domains shown) VH: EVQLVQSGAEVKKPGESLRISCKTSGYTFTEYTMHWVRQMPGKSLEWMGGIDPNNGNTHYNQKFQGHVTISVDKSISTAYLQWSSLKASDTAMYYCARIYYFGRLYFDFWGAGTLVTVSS VL: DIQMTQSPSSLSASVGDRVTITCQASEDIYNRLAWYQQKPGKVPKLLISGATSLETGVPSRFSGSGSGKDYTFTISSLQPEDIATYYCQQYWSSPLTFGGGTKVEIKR
43.8
